# Protocol description: Oral bioavailability in dog
# Assay type: ADME, organism-based, Canis lupus familiaris
# Applied conditions: in vivo

Compound: COC(=O)N[C@H](C(=O)N[C@@H](Cc1ccccc1)[C@@H](O)CN(Cc1ccc(-c2ccccn2)cc1)NC(=O)[C@@H](NC(=O)OC)C(C)(C)C)C(C)(C)C [ATAZANAVIR]
bioavailability [%]: 36

====

# Target system: UGT1A1 (Homo sapiens, UniProt P22309)
# Sequence (P22309 whole entry): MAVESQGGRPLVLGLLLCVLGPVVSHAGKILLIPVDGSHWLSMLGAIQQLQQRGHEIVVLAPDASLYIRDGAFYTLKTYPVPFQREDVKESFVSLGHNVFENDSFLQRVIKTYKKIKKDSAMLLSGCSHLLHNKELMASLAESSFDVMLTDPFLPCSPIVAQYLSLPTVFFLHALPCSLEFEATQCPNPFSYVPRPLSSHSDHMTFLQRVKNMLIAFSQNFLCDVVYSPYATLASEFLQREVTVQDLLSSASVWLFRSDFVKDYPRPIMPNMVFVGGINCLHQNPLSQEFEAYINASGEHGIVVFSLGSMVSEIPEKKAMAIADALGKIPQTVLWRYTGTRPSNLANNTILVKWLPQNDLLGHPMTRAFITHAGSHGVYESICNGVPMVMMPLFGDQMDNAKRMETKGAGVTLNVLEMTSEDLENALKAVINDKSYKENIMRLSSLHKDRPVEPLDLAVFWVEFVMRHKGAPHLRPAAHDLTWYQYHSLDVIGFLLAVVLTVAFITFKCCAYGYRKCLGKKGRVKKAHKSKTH
# Protocol description: Ratio of test compound IC50 to atazanavir IC50 for recombinant human UGT1A1
# Assay type: ADME
# Applied conditions: read-out: Ratio IC50
Parameter measured: selectivity ratio

Input smiles: COC(=O)N[C@H](C(=O)N[C@@H](Cc1ccccc1)[C@H](CN(Cc1ccc(-c2ccccn2)cc1)NC(=O)[C@@H](NC(=O)OC)C(C)(C)C)OC(=O)[C@@H](N)Cc1ccccc1)C(C)(C)C
Numeric value: 9.3

====

# Protocol description: Prodrug conversion in cannulated Sprague-Dawley rat plasma assessed as atazanavir formation at 3 mg/kg equiv of atazanavir administered orally by UPLC/MS/MS analysis
# Format: ADME, organism-based
# Applied conditions: in vivo, po

Input smiles: Cc1cccc(C)c1OCC(=O)N[C@@H](Cc1ccccc1)[C@@H](O)C[C@H](Cc1ccccc1)NC(=O)[C@H](C(C)C)N1CCCNC1=O
Drug metabolism: Metabolite_Detected
//
Input smiles: CC(C)CN(C[C@@H](OP(=O)(O)O)[C@H](Cc1ccccc1)NC(=O)O[C@H]1CCOC1)S(=O)(=O)c1ccc(N)cc1
Drug metabolism: Metabolite_Notdetected
//
Input smiles: Cc1cccc(C)c1OCC(=O)N[C@@H](Cc1ccccc1)[C@H](C[C@H](Cc1ccccc1)NC(=O)[C@H](C(C)C)N1CCCNC1=O)OP(=O)(O)O
Drug metabolism: Metabolite_Notdetected
//
Input smiles: COC(=O)N[C@H](C(=O)N[C@@H](Cc1ccccc1)[C@H](CN(Cc1ccc(-c2ccccn2)cc1)NC(=O)[C@@H](NC(=O)OC)C(C)(C)C)OCOP(=O)([O-])[O-])C(C)(C)C.[Na+].[Na+]
Drug metabolism: Metabolite_Detected
//
Input smiles: COC(=O)N[C@H](C(=O)N[C@@H](Cc1ccccc1)[C@H](CN(Cc1ccc(-c2ccccn2)cc1)NC(=O)[C@@H](NC(=O)OC)C(C)(C)C)OP(=O)(O)O)C(C)(C)C
Drug metabolism: Metabolite_Notdetected

====

Item-by-item account of Cmax
# Applied conditions: rat, in vivo, po, 3 mg/kg

Input smiles: COC(=O)N[C@H](C(=O)N[C@@H](Cc1ccccc1)[C@H](CN(Cc1ccc(-c2ccccn2)cc1)NC(=O)[C@@H](NC(=O)OC)C(C)(C)C)OC(=O)[C@@H](C)N)C(C)(C)C
Cmax / nM: 3

Input smiles: COC(=O)N[C@H](C(=O)N[C@@H](Cc1ccccc1)[C@H](CN(Cc1ccc(-c2ccccn2)cc1)NC(=O)[C@@H](NC(=O)OC)C(C)(C)C)OC(=O)CNCc1ccccc1)C(C)(C)C
Cmax / nM: 55

Input smiles: COC(=O)N[C@H](C(=O)N[C@@H](Cc1ccccc1)[C@H](CN(Cc1ccc(-c2ccccn2)cc1)NC(=O)[C@@H](NC(=O)OC)C(C)(C)C)OC(=O)CN(C)C(=O)[C@H](Cc1ccccc1)N(C)C)C(C)(C)C
Cmax / nM: 285

Input smiles: COC(=O)N[C@H](C(=O)N[C@@H](Cc1ccccc1)[C@H](CN(Cc1ccc(-c2ccccn2)cc1)NC(=O)[C@@H](NC(=O)OC)C(C)(C)C)OC(=O)[C@@H](N)Cc1ccc(F)cc1)C(C)(C)C
Cmax / nM: 305

Input smiles: COC(=O)N[C@H](C(=O)N[C@@H](Cc1ccccc1)[C@H](CN(Cc1ccc(-c2ccccn2)cc1)NC(=O)[C@@H](NC(=O)OC)C(C)(C)C)OC(=O)[C@@H](N)Cc1ccccc1)C(C)(C)C
Cmax / nM: 456

====

# Protocol description: Aqueous solubility of the compound in FeSSIF by RP-HPLC analysis
# Format: physicochemical

Input smiles: COC(=O)N[C@H](C(=O)N[C@@H](Cc1ccccc1)[C@H](CN(Cc1ccc(-c2ccccn2)cc1)NC(=O)[C@@H](NC(=O)OC)C(C)(C)C)OC(=O)[C@@H](N)Cc1ccccc1)C(C)(C)C
solubility: > 500 µg/mL

====

Item-by-item account of solubility
# Protocol description: physchem
# Applied conditions: acetate buffer, pH 4
# Description: Aqueous solubility of the compound in pH 4 acetate buffer by RP-UPLC analysis
Parameter measured: solubility

Input smiles: COC(=O)N[C@H](C(=O)N[C@@H](Cc1ccccc1)[C@H](CN(Cc1ccc(-c2ccccn2)cc1)NC(=O)[C@@H](NC(=O)OC)C(C)(C)C)OC(=O)CN)C(C)(C)C
Parameter measured: solubility
Result: > 1600 µg/mL

Input smiles: COC(=O)N[C@H](C(=O)N[C@@H](Cc1ccccc1)[C@H](CN(Cc1ccc(-c2ccccn2)cc1)NC(=O)[C@@H](NC(=O)OC)C(C)(C)C)OC(=O)[C@H](NC(=O)[C@H](N)C(C)C)C(C)C)C(C)(C)C
Parameter measured: solubility
Result: > 2200 µg/mL

Input smiles: COC(=O)N[C@H](C(=O)N[C@@H](Cc1ccccc1)[C@H](CN(Cc1ccc(-c2ccccn2)cc1)NC(=O)[C@@H](NC(=O)OC)C(C)(C)C)OC(=O)[C@H](NC(=O)[C@@H](N)C(C)C)C(C)C)C(C)(C)C
Parameter measured: solubility
Result: > 1420 µg/mL

Input smiles: COC(=O)N[C@H](C(=O)N[C@@H](Cc1ccccc1)[C@H](CN(Cc1ccc(-c2ccccn2)cc1)NC(=O)[C@@H](NC(=O)OC)C(C)(C)C)OC(=O)[C@@H](N)Cc1ccccc1)C(C)(C)C
Parameter measured: solubility
Result: 1100 to 4100 µg/mL

Input smiles: COC(=O)N[C@H](C(=O)N[C@@H](Cc1ccccc1)[C@H](CN(Cc1ccc(-c2ccccn2)cc1)NC(=O)[C@@H](NC(=O)OC)C(C)(C)C)OC(=O)[C@@H](N)Cc1ccc(F)cc1)C(C)(C)C
Parameter measured: solubility
Result: > 980 µg/mL

Input smiles: COC(=O)N[C@H](C(=O)N[C@@H](Cc1ccccc1)[C@H](CN(Cc1ccc(-c2ccccn2)cc1)NC(=O)[C@@H](NC(=O)OC)C(C)(C)C)OC(=O)CNCc1ccccc1)C(C)(C)C
Parameter measured: solubility
Result: > 710 µg/mL

====

# Target system: UGT1A1 (Homo sapiens, UniProt P22309)
# Protocol description: Ratio of test compound IC50 to atazanavir IC50 for UGT1A1 in human liver microsomes
# Assay type: ADME
# Applied conditions: read-out: Ratio IC50

Input smiles: COC(=O)N[C@H](C(=O)N[C@@H](Cc1ccccc1)[C@H](CN(Cc1ccc(-c2ccccn2)cc1)NC(=O)[C@@H](NC(=O)OC)C(C)(C)C)OC(=O)[C@@H](N)Cc1ccccc1)C(C)(C)C
selectivity ratio: 4.2

====

# Protocol description: physchem
# Applied conditions: acetate buffer, pH 4
Item-by-item account of solubility

Input smiles: COC(=O)N[C@H](C(=O)N[C@@H](Cc1ccccc1)[C@H](CN(Cc1ccc(-c2ccccn2)cc1)NC(=O)[C@@H](NC(=O)OC)C(C)(C)C)OC(=O)[C@H](N)CCSC)C(C)(C)C
solubility: > 890 µg/mL
//
Input smiles: COC(=O)N[C@H](C(=O)N[C@@H](Cc1ccccc1)[C@H](CN(Cc1ccc(-c2ccccn2)cc1)NC(=O)[C@@H](NC(=O)OC)C(C)(C)C)OC(=O)[C@@H](NC(=O)[C@H](N)C(C)C)C(C)C)C(C)(C)C
solubility: > 2000 µg/mL
//
Input smiles: COC(=O)N[C@H](C(=O)N[C@@H](Cc1ccccc1)[C@H](CN(Cc1ccc(-c2ccccn2)cc1)NC(=O)[C@@H](NC(=O)OC)C(C)(C)C)OC(=O)CN(C)C(=O)[C@H](Cc1ccccc1)N(C)C)C(C)(C)C
solubility: > 2200 µg/mL

====

# Protocol description: physchem
# Applied conditions: HCl buffer, pH 1
# Description: Aqueous solubility of the compound in pH 1 HCl buffer by RP-UPLC analysis
Item-by-item account of solubility

Input smiles: COC(=O)N[C@H](C(=O)N[C@@H](Cc1ccccc1)[C@H](CN(Cc1ccc(-c2ccccn2)cc1)NC(=O)[C@@H](NC(=O)OC)C(C)(C)C)OC(=O)[C@@H](N)CCSC)C(C)(C)C
solubility: > 1630 µg/mL
//
Input smiles: COC(=O)N[C@H](C(=O)N[C@@H](Cc1ccccc1)[C@H](CN(Cc1ccc(-c2ccccn2)cc1)NC(=O)[C@@H](NC(=O)OC)C(C)(C)C)OC(=O)[C@@H](N)Cc1ccc(O)cc1)C(C)(C)C
solubility: > 980 µg/mL
//
Input smiles: COC(=O)N[C@H](C(=O)N[C@@H](Cc1ccccc1)[C@H](CN(Cc1ccc(-c2ccccn2)cc1)NC(=O)[C@@H](NC(=O)OC)C(C)(C)C)OC(=O)[C@@H](NC(=O)[C@H](N)C(C)C)C(C)C)C(C)(C)C
solubility: > 2000 µg/mL
